target: T1, EGFR Fc (human, UniProt P00533 25-645); test: ELISA, EGFR Fc coated, VHH at 500 nM
T1 construct: also called EGFR-hFc; recombinant human EGFR-Fc
For each entry below, report its OD450 value.
One number for each entry.

These solved cases illustrate the format of a correct answer.
binder	experimental readout	value observed
pgEG-SX6 (VHH, not shown: small tags and cut ends) VHH: QVQLVESGGGTVQAGGSLRLSCVASGMREDIFDMGWYRQAPGLQRELVATITSGGSTDYADSVKGRFTISRDNTENTLNLQMNMLKPEDTAVYYCNALYFPPSGGRSSEFWGQGTLVTVSS	OD450	1.37
pgEG-SX57 (VHH, not shown: small tags and cut ends) VHH: QVQLVESGGGLVQAGGSLRLSCAGARSIFSIKPMTWYRQAPGKERELVAWFTSGDSPNYADSVKGRFTISRDSAKNTVYLQMNNLKPEDTAVYYCNAVPPLGRWGQGTLVTVSS	OD450	2.61
pgEG-SX20 (VHH, not shown: small tags and cut ends) VHH: QVQLVESGGGLVQAGGSLRLSCAGARSAFSIKPMTWYRQAPGKERELVAYFNSGGSTNYADSVKGRFTISRDNAKNTMYLQMNNLKPEDTAVYYCNAIPPLGSWGQGTQVTVSS	OD450	2.53

Read the next record carefully.
Exam item: Please give the documented OD450 of pgEG-SX39 (VHH, not shown: small tags and cut ends) VHH: QVQVAESGGGLVQAGESLRLSCTASGSISTINAVRWYRQTPGKQREFVAYISTDGGTDYADPVKGRFTISRDNAKNTWFLQMNSLKPEDTGVYMCNVVVTPYAYWGQGTQVTVSS
Marked response: 0.503
